The measurements presented in this section are drawn from patent US20220306762A1.

biological target: T1, His-tagged cynomolgus monkey CD38 (ACRO Biosystems cat #CD8-05223) (cynomolgus monkey, UniProt Q5VAN0 43-301); assay: ELISA, coated His-CD38
T1 construct: bought recombinant protein with His tag
measurement_type: ELISA 1 ug/ml

[[record]]
binder = "40566p1.F8 (scFv, V domains shown, tested as scFv-Fc supernatant) VH: DVQLVESGGGVVRPGESLRLSCAASGFTFDNYDMTWVRQAPGEGLEWVSFISSRGTFAYYTDSVKGRFTISRDNSKNTLYLQMNSLRAEDTAIYYCTKDSGEYYFFDYWGLGTLVTVSS VL: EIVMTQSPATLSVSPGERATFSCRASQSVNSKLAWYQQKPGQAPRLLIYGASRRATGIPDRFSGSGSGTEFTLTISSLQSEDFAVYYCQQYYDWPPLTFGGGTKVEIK"
quantitative_result = 1.8

[[record]]
binder = "40617p1.2.A3 (scFv, V domains shown, tested as scFv-Fc supernatant) VH: EVQLLESGGGLVQPGGSLRLSCAASGFTFSNYWMTWVRQAPGKGLEWVSAISSYGGNYIYYADSVKGRFTISRDNSKDTLYLQMNSLRAEDTAVYYCAKDWDDGMDVWGQGTTVTVSS VL: EIVMTQSPAVLSVSPGERATLSCRASQSVNSKLAWYQQKPGQAPRLLIYGASTRAAGIPDRFSGSGSGTDFTLTISSPQSEDFAVYYCQHYYDLPPYSFGGGTKVEIK"
quantitative_result = 1.7

[[record]]
binder = "40596p1.B1 (scFv, V domains shown, tested as scFv-Fc supernatant) VH: EVQLLESGGGLVEPGGSLRLSCAASGFDFSTYAMTWVRQAPGKGLEWVAGNGWSGSFIYYADSVKGRFTISRDNSKNTLYLQMNSLRAEDTAVYYCTRNPGFGEMDVWGQGTTVTVSS VL: EIVLTQSPGTLRLSPGERATLSCKASQTVGTTLAWYQQKPGQAPRLLIYGASTRATGIPDRFSGSGSGTEFTLTISSLQSEDFADYYCQQYKSWPPLTFGGGTKVEIK"
quantitative_result = 1.99

[[record]]
binder = "40566p1.B12 (scFv, V domains shown, tested as scFv-Fc supernatant) VH: DVQLVESGGGVVRPGESLRLSCAASGFTFDNYDMTWVRQAPGEGLEWVSFISSRGIFTYYADSVKGRFTISRDNSKNTLYLQMNSLRAEDTAIYYCAKDSGEYYFFDYWGLGTLVTVSS VL: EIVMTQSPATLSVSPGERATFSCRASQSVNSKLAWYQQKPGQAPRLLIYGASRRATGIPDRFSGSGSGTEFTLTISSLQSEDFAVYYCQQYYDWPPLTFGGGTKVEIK"
quantitative_result = 1.6

[[record]]
binder = "40596p1.E4 (scFv, V domains shown, tested as scFv-Fc supernatant) VH: EVQLLESGGGLVQPGGSLRLSCAASGFDFSGSAMSWVRQAPGKGLEYVAGLGWSGSFIYYADSVKGRSTISRDNSKNTLYLQLNSLRAEDTAVYYCARNPGFGEMDVWGQGTTVTVSS VL: EIVLTQSPGSLSLSPGERATLSCRASQTVGSNLAWYQQKPGQAPRLLIYGASTRATDIPDRFSGSGSGTEFTLTISSLQSEDFAVYYCQQYNSWPPLTFGGGTKVEIK"
quantitative_result = 1.77

[[record]]
binder = "40769p1.1.G12 (scFv, V domains shown, tested as scFv-Fc supernatant) VH: EVQLLESGGGLVQPGGSLRLSCAASGFTFDDYVMSWVRQAPGKGLEWVSEISESDGSNKYYADSVKGRFIISRDNSKNTLYLQMNSLRAEDTAVYYCARLEPEKYYGMDVWGQGTTVTVSS VL: QSVLTQPPSASGTPGQRVTISCSGSNSNIGNNLVSWYQQLPGTAPKLLIYRHDHRPSGVPDRFSGSKSGTSASLAISGLQSEDEADYYCATWDDSLNGRAFGGGTKLTVL"
quantitative_result = 1.08

[[record]]
binder = "40596p1.F6 (scFv, V domains shown, tested as scFv-Fc supernatant) VH: EVQLLESGGGLVQPGGSLRLSCAASGFDFSKNAMSWVRQAPGKGLEYVAGSGWSGSFIFYADSVKGRFTVSRDNSENTLYLQMSSLRAEDTAVYYCAKNPGFGEMDVWGQGTTVTVSS VL: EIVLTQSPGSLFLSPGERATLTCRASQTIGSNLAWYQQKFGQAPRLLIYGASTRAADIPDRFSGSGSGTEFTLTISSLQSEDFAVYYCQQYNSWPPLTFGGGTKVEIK"
quantitative_result = 1.87

[[record]]
binder = "40596p1.G10 (scFv, V domains shown, tested as scFv-Fc supernatant) VH: EVQLLESGGGLVQPGGSLRLSCAAPGFDFSKNAMSWVRQAPGKGLEYVAGSGWSGSFIFYADSVKGRFTVSRDNSENTLYLQMSSLRAEDTAVYYCAKNPGFGEMDVWGQGTTVTVSS VL: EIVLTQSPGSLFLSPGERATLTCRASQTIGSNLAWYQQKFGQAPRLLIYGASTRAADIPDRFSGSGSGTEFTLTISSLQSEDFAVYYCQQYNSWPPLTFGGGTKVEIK"
quantitative_result = 1.89

[[record]]
binder = "40617p1.2.H8 (scFv, V domains shown, tested as scFv-Fc supernatant) VH: EVQLLESGGGLVQPGGSLRLSCAASGFTFSSYWMTWVRQAPGKGLEWVSAISSYGGNYMYYADSVKGRFTISRDNSKDTLYLQMNSLRAEDTAVYYCAKDWDDGMDVWGQGTTVTVSS VL: EIVMTQSPATLSVSPGDRATLSCRASQSVNSKLAWYQQKPGQAPRLLIYAASSRATGIPDRFSGSGSGTDFTLTISRLEPEDFAVYYCQQYYDLPPYSFGGGTKVEIK"
quantitative_result = 2.17

[[record]]
binder = "40566p1.C11 (scFv, V domains shown, tested as scFv-Fc supernatant) VH: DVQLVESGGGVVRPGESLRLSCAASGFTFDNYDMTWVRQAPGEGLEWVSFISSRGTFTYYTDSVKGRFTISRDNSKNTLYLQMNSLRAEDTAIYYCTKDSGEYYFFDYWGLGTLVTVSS VL: EIVLTQSPGTLSLSPGERATLSCRASQTVGSKLAWYQQKPGQAPRLLIFSASSRATGIPARFSGSGSGTEFTLTISSLQSEDFAVYYCQQYYDWPPLTFGGGTKVEIK"
quantitative_result = 1.7

